# Target system: muscarinic receptors
# Type: binding, rat (Hooded Lister)
# Conditions: displacement of 0.27 nM 3H-QNB, rat cerebral cortex homogenate, 37° C., 30 min
Counter-ions that a name gives are not always drawn.
Flag rule - IC50 less than 6 µM flags YES; the remaining entries get NO.

1. C#CCON=CC1CN2CCC1CC2 (racemic) [E 17, hydrochloride salt]: YES
2. CON=C[C@H]1C[C@@H]2CCN(C1)C2 (relative stereo) [E 23, hydrochloride salt]: YES
3. C#CCON=CC12CCN(CC1)C2 [E 21, oxalate salt]: NO
4. CON=C(C)C1CC2CCN(C2)C1 (racemic) [E 24, hydrochloride salt]: NO
5. CON=C(C)C12CCCN(CC1)C2 (racemic) [E 6, hydrochloride salt]: YES
